RUN DESCRIPTION: Phase 1 single ascending dose study, plasma pharmacokinetics
Format: in vivo, human
CONDITIONS USED: male, human, plasma, po, 1 mg, 1.0 mg HM01 single oral dose, N = 6; geometric mean; read-out: AUClast
PARAMETER: AUC(0-t) (ng·h/mL)
Numbers only; they are read as ng·h/mL.

Answer with reported AUC(0-t) of `COc1ccc([C@H](C)NC(=O)N(C)[C@@H]2CCN(C)CC2(C)C)c(Cl)c1Cl.Cl`
14.7
